Just for reference, PubChem BioAssay (NCI) is where these values come from.

# TGI per record follows
- Test system: HCT-116 colon
- measurement.description: NCI tumour cell line growth inhibition, 48 h

C=C1C(=O)OC2CC3(C)C=CC(=O)C(=C)C3CC12 (stereo not given) = 2.54 µM
CC(C)(C(=O)NN)c1ccccc1 = > 100 µM
CCOC(=O)NC(C(F)(F)F)(C(F)(F)F)P(=O)(OC(C)C)OC(C)C = > 100 µM

Query: Param readout = TGI; param system = HCT-116 colon; param query = CN(C)c1ccc2nc3ccc(=[N+](C)C)cc-3oc2c1 ; response: value
Reply: 12.1 µM

Query: Record COc1cc(NC(C)=O)c2[nH]c3c(C)cc(NC(C)=O)c(C)c3c2c1 : what is its TGI with HCT-116 colon?
Reply: > 100 µM

Query: Give HCT-116 colon TGI for CCCCCC(=O)Nc1n[nH]nc1C(N)=O
Reply: > 100 µM

----------
- System: MALME-3M melanoma
- measurement.description: NCI tumour cell line growth inhibition, 48 h; in the data active = GI50 below about 0.43 µM; inactive = the rest
Lab note: assign the record to one of TRUE = active, FALSE = inactive

CC12CCC=CC1CCC1C2CCC2(C)C(c3ccc(=O)oc3)CCC12O (configuration not stated) = TRUE
Cc1cc(N2CCCCC2)nc(N(CCNc2ccnc3cc(Cl)ccc23)Cc2ccco2)n1 = FALSE
CCn1c(-c2nonc2N)nc2cncc(C(=O)N3CCNCC3)c21 = FALSE
C=C(C)[C@@H]1CC[C@]2(C(=O)NCCCN)CC[C@]3(C)[C@H](CC[C@@H]4[C@@]5(C)CC[C@H](O)C(C)(C)[C@@H]5CC[C@]43C)[C@@H]12 = FALSE

Query: What call does the record list for CSc1nnc(CCSc2ccnc3c(C(F)(F)F)cccc23)o1 ?
Reply: FALSE

Query: I would be grateful if you could indicate the recorded call for COc1cc2cc(Oc3ccc(NC(=O)Nc4ccc(Cl)c(C(F)(F)F)c4)cc3)c(C)nc2cc1OCCN1CCCCC1 .
Reply: FALSE

Query: Kindly provide the recorded test outcome for the following molecule: N#CC(C#N)=CN1CCN(C(=O)c2ccco2)C1=S
Reply: FALSE

Query: Please let me know the test result on file for CCc1ccc(NC(=O)Nc2c[nH]c3ccccc23)cc1 .
Reply: FALSE

Query: Could you check what this test reported for N#CC(C#N)=Cc1ccc(-c2ccc(-c3nc4ccccc4s3)cc2)o1 ?
Reply: FALSE

Query: Name the outcome recorded for CN(C)CCNC(=O)c1cccn2c(=O)c3cc4ccccc4cc3nc12 in the assay.
Reply: TRUE

Query: Short answer needed: outcome of this test for CCN=C1C=CC(=C(c2ccc(N(C)C)cc2)c2ccc(N(C)C)cc2)c2ccccc21 ?
Reply: TRUE

Query: recorded result category for O=S(=O)(c1ccc(NC(=S)NCc2cccnc2)cc1)N1CCCCC1 in this test
Reply: FALSE

----------
- System: HCC-2998 colon
- measurement.description: NCI tumour cell line growth inhibition, 48 h
property.measured: TGI

Query: TGI for COc1cccc(C2=C(c3cn(C)c4ccccc34)C(=O)NC2=O)c1 ?
Reply: > 25 µM

Query: Query (compound): O=C(O)CSSCC(=O)O ; field requested: TGI
Reply: > 100 µM

Query: Any idea what its TGI is? The compound is COC(=O)[C@H](Cc1ccccc1)NC(=O)NCCN(CCNC(=O)N[C@@H](Cc1ccccc1)C(=O)OC)C(=O)N[C@@H](Cc1ccccc1)C(=O)OC
Reply: 34.8 µM

Query: If you can, please state the reported TGI value of Cc1c2cnccc2c(C)c2c1[nH]c1ccc(O)cc12 .
Reply: > 10 µM

Query: Given the compound CCOP(=O)(OCC)C1CCCCOC1=O (centres undefined) , what is its reported TGI?
Reply: > 100 µM

----------
- Tested on: NCI-H522 lung
- measurement.description: NCI tumour cell line growth inhibition, 48 h
The following compounds are shown together with reported TGI values.
Give the quantity in µM, number only.

For orientation, consider the following solved cases.
CCc1c(C)[nH]c(/C=C2\N=C(c3ccc[nH]3)C=C2OC)c1C = 2.34
O=S(=O)([O-])[O-].[Fe+2].c1ccc(/C(=N\Nc2ccccn2)c2ccccn2)cc1 = 3.55
NCCCCNCCCN1CC1 = 19.9

Now examine the next entry.
Query: Which TGI is listed for CCN(CC)c1ccc(/C=C/c2cc(C)c3ccccc3n2)cc1 ?
Reply: 3.91

----------
Measured TGI by item
- Tested on: OVCAR-4 ovarian
- measurement.description: NCI tumour cell line growth inhibition, 48 h

Query: Query for OVCAR-4 ovarian: what TGI does the record show for Cc1nc2sc(CCl)nn2c(=O)c1Cl ?
Reply: 29.7 µM

Query: # get_value(readout= TGI, system= OVCAR-4 ovarian) for COc1ccc(OC)c2sc(N3C(=O)/C(=C/Cc4ccco4)N=C3c3ccccc3)nc12
Reply: > 100 µM

Query: Kindly state the measured TGI obtained for c1ccc2nc(Cn3c[n+](Cc4ccc5ccccc5n4)c4ccccc43)ccc2c1 with OVCAR-4 ovarian.
Reply: 11.6 µM

Query: # get_value(readout= TGI, system= OVCAR-4 ovarian) for NC(=S)NNC(=O)/C(=C/c1ccc(/C=C(\NC(=O)c2ccccc2)C(=O)NNC(N)=S)cc1)NC(=O)c1ccccc1
Reply: > 100 µM

Query: Kindly state the measured TGI obtained for Nc1ccn(C2CC(O)C(COP(O)(=S)OC3CC(n4ccc(N)nc4=O)OC3CO)O2)c(=O)n1 (configuration not stated) with OVCAR-4 ovarian.
Reply: > 100 µM

Query: Lab note: need TGI with OVCAR-4 ovarian for entry Oc1ccccc1/C=N/Nc1nnc2c3ccccc3c3ccccc3c2n1 , please look it up.
Reply: > 100 µM

Query: API: value(readout= TGI, system= OVCAR-4 ovarian, query= O=C(NC(C(F)(F)F)(C(F)(F)F)P(=O)(c1ccccc1)c1ccccc1)C(C(F)(F)F)C(F)(F)F )
Reply: > 100 µM

Query: Any idea what TGI came out for COc1ccc(Br)c2c1CC(C(=O)O)CC2 (configuration not stated) on OVCAR-4 ovarian?
Reply: > 100 µM

Query: I'm curious: which TGI was measured for COc1cc2c(cc1OC)-c1ccc3cc4c(cc3c1N(CCN1CCCC1)C2)OCO4 tested on OVCAR-4 ovarian?
Reply: 6.49 µM

Query: GET /values?readout=TGI&system=OVCAR-4 ovarian&item= CCCCCCn1c(SCC)c2ccccc2c1-c1nc(F)nc(F)n1
Reply: > 100 µM

----------
- Tested on: HCT-15 colon
- measurement.description: NCI tumour cell line growth inhibition, 48 h; in the data active means GI50 below about 0.43 µM; inactive means the rest
Outcome field: choose from yes (1) = active, no (0) = inactive

Look over these answered cases.
Nc1nc(/C=C\c2ccc([N+](=O)[O-])o2)nc(N2CCN(c3ccccc3)CC2)n1 = no (0)
CCc1ccc(NC(=O)Nc2c[nH]c3ccccc23)cc1 = no (0)
CC[C@](C)(O)C(=O)O[C@H]1C(=O)O[C@@H]2C[C@H]3C(C)=CC(=O)[C@@H](O)[C@]3(C)[C@H]3[C@@]4(O)OC[C@]32[C@@H]1[C@@H](C)[C@H]4O = yes (1)

Now examine the next entry.
Query: Please indicate how the test categorized C[C@]12CC[C@H]3[C@@H](CCC4=CC(=O)CC[C@@H]43)[C@@H]1CC[C@@H]2OC(=O)N(CCCl)N=O .
Reply: no (0)

----------
- Tested on: HCT-116 colon
- measurement.description: NCI tumour cell line growth inhibition, 48 h; in the data active = GI50 below about 0.43 µM; inactive = the rest
Log the outcome using a class from active, inactive

Below are worked cases with known answers.
C[C@]12CC[C@H]3[C@@H](CCC4=CC(=O)CC[C@@H]43)[C@@H]1CC[C@@H]2OC(=O)N(CCCl)N=O = inactive
CCCN1C(=O)/C(=c2\sc3n(c2=O)C2C(NN=3)N(CC)C(=O)N2CC)c2ccccc21 (stereo not given) = active
N#CC(C#N)=Cc1ccc(-c2ccc(-c3nc4ccccc4s3)cc2)o1 = inactive
CCC[CH2][Sn]([CH2]CCC)([O]C(C)=O)[O]C(C)=O = inactive

Query: What outcome does the record of this test show for CCOC(=O)c1c2c(n(CC(C)C)c1C)-c1nc[nH]c1C(=O)C2=O ?
Reply: inactive

----------
Quick reference: TGI of the listed items.
- Test system: EKVX NSCLC
- measurement.description: NCI tumour cell line growth inhibition, 48 h

Examples from the recorded data:
CC(C)=CCOc1cc(NC(=S)c2ccoc2C)ccc1Cl = > 100 µM
CC1CC2C(=O)NC(=O)C2c2[nH]c3ccccc3c21 (configuration not stated) = > 100 µM
CCOC(=O)c1ccc(C(=O)OCC)n1-c1cc2cc(c1)CSCc1cc(cc(-n3c(C(=O)OCC)ccc3C(=O)OCC)c1)CSC2 = > 10 µM
Clc1cccc(Cl)c1C=NC12CC3CC(CC(C3)C1)C2 = > 10 µM
C=C1C(=O)C([Si](C)(C)C)=C2C=C(C)C3(CC3)C12C (configuration not stated) = 42.2 µM
CCOP(=O)(OCC)C1CCCCOC1=O (configuration not stated) = > 100 µM
C=C(c1ccccc1)C1ON(C)CCc2cc(OC)c(OC)cc21 (configuration not stated) = > 100 µM
COC(=O)N1C[C@@]2(C=CC3(CC2)OCCO3)c2ccccc21 = > 100 µM
COC12C=CC(CC1)c1c(O)ccc(O)c12 (configuration not stated) = > 100 µM
CC#COP(=O)(OCC)OCC = > 100 µM

Query: GET /values?readout=TGI&item= COc1cccc(OC(=O)c2ccccc2Nc2ccnc(C(F)(F)F)c2)c1
Reply: > 100 µM

Query: For O=C(O)CS(=O)(=O)C(c1ccccc1)c1ccccc1 , what is its reported TGI?
Reply: > 100 µM
